test system: Mycobacterium avium; assay: Antimycobacterial activity against INH/RIF/rifabutin/OFX/EMB resistant Mycobacterium avium CNCTC 330/88 assessed as bacterial growth inhibition incubated for 21 days by two-fold serial dilution method; assay type: functional; conditions: CNCTC 330/88, 504 h, time 21 day
Some molecules, each annotated with its measured MIC.

- STRUCTURE_NOTATION: "C/C(=N\\NC(=O)c1ccncc1)C(=O)Nc1ccc(NC(=O)/C(C)=N/NC(=O)c2ccncc2)cc1"
  MIC: "250 µM"
- STRUCTURE_NOTATION: "Nc1ccc(S(=O)(=O)Nc2ccc(Sc3ccc([N+](=O)[O-])cc3)cc2)cc1"
  MIC: "≥ 1000 µM"
- STRUCTURE_NOTATION: "C/C(=N\\NC(=O)c1ccncc1)C(=O)NNC(N)=S"
  MIC: "1000 µM"
- STRUCTURE_NOTATION: "C/C(=N\\NC(=O)c1ccncc1)C(=O)Nc1ccc(S(=O)(=O)Nc2cc(C)on2)cc1"
  MIC: "≥ 1000 µM"
- STRUCTURE_NOTATION: "C/C(=N\\NC(=O)c1ccncc1)C(=O)Nc1ccc(Sc2ccc([N+](=O)[O-])cc2)cc1"
  MIC: "500 µM"

Values were extracted from ChEMBL document CHEMBL6177921.
